TESTED SYSTEM: T1, recombinant human 4R0N tau (human, UniProt P10636 2-758)
T1 construct: also called recombinant 4R0N human tau; P10636-6
T1 sequence (P10636 other isoform, or with tags, fused parts or gaps limits assumed): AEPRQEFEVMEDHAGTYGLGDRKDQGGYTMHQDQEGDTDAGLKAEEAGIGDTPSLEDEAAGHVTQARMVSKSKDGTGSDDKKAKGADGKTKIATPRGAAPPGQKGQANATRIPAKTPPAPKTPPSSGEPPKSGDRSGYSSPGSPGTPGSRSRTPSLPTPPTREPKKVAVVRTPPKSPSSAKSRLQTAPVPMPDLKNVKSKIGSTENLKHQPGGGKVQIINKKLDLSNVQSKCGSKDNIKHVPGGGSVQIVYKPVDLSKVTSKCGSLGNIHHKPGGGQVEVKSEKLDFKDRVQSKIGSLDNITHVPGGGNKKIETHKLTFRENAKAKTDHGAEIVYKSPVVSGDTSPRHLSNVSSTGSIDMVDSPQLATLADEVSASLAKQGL
EXPERIMENT SUMMARY: SPR Biacore T200; antibody captured by anti-human Fc; tau as analyte; global 1:1 fit
MEASURED QUANTITY: kon (M⁻¹ s⁻¹)
Only the number, expressed in M⁻¹ s⁻¹, is required.

Use the examples below as a reference point.
- BINDER: "hu9F5VHv9/hu9F5VLv8_DIM14 (antibody, V domains shown) VH: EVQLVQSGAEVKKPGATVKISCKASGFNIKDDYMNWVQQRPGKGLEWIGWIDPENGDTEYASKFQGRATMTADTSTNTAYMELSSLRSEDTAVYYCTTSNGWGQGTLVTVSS VL: DIQMTQSPFSLPVTPGESASISCRSSKSLGHSNGITYLYWYGQKPGQSPQLLIYQGSNTASGVPNRFSSSGSGTDFTLKISRVEAEDVGVYYCAQNIELPLTFGQGTKLEIK"
  kon / M⁻¹ s⁻¹: "1.33e+06"
- BINDER: "hu9F5VHv9/hu9F5VLv8_DIM15 (antibody, V domains shown) VH: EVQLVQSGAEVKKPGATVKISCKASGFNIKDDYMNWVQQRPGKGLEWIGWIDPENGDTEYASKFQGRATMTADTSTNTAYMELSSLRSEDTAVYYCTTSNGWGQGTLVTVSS VL: DIQMTQSPFSLPVTPGESASISCRSSKSLGHSNGITYLYWYGQKPGQSPQLLIYQGSNTASGVPNRFSSSGSGTDFTLKISRVEAEDVGVYYCAQNGELPLTFGQGTKLEIK"
  kon / M⁻¹ s⁻¹: 839000

Prompt: Value lookup for kon; key = hu9F5VHv9/hu9F5VLv8_DIM4 (antibody, V domains shown) VH: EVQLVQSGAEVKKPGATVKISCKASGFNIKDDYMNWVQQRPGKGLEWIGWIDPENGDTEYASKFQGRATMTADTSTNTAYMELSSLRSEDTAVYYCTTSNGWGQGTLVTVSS VL: DIQMTQSPFSLPVTPGESASISCRSSKSLSHSNGITYLYWYQQKPGQSPQLLIYQGSNRASGVPNRFSSSGSGTDFTLKISRVEAEDVGVYYCAQNGELPLTFGQGTKLEIK
Completion: 542000

Prompt: Please look up its kon: hu9F5VHv9/hu9F5VLv8_DIM7 (antibody, V domains shown) VH: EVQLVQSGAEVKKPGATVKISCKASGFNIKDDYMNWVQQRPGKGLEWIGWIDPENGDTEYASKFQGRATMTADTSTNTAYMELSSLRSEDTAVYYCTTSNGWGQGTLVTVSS VL: DIQMTQSPFSLPVTPGESASISCRSSKSLDHSNGITYLYWYQQKPGQSPQLLIYQKSNRASGVPNRFSSSGSGTDFTLKISRVEAEDVGVYYCAQNIELPLTFGQGTKLEIK
Completion: 2.36e+06

Prompt: Consider the binder hu9F5VHv9/hu9F5VLv8_DIM19 (antibody, V domains shown) VH: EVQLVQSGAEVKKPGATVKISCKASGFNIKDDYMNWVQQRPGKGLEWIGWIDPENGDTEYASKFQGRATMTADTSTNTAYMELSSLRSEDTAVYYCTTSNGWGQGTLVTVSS VL: DIQMTQSPFSLPVTPGESASISCRSSKSLSHSNGITYLYWYIQKPGQSPQLLIYQISNRASGVPNRFSSSGSGTDFTLKISRVEAEDVGVYYCAQNIELPLTFGQGTKLEIK and give its measured kon.
Completion: 3.61e+06

Sourced from patent US20220275067A1
